Literature pIC50 values, system: ITK (Homo sapiens).
// field semantics: pIC50 = negative decimal log of concentration (mol/L)

Observe how each entry below is paired with its result.
| structure_string | pIC50 |
| --- | --- |
| C=C(CN1CCCCC1)C(=O)N1CCC[C@@H](n2nc(-c3ccc(Oc4ccccc4)cc3)c3c(N)ncnc32)C1 | 7.37 |
| C=CC(=O)Nc1cccc(Oc2nc(Nc3ccc(N4CCN(C)CC4)cc3)nc3ccoc23)c1 | 6.99 |

Sample Cc1c(-c2c(F)cc(C(N)=O)c3[nH]c4c(c23)CC[C@H](C(C)(C)O)C4)cccc1-n1c(=O)c2cccc(F)c2n(C)c1=O , system: ITK (Homo sapiens). Its pIC50 is 7.82
